molecular target: AAK1 (human) (UniProt Q2M2I8)
Sequence (Q2M2I8 whole entry, looked up): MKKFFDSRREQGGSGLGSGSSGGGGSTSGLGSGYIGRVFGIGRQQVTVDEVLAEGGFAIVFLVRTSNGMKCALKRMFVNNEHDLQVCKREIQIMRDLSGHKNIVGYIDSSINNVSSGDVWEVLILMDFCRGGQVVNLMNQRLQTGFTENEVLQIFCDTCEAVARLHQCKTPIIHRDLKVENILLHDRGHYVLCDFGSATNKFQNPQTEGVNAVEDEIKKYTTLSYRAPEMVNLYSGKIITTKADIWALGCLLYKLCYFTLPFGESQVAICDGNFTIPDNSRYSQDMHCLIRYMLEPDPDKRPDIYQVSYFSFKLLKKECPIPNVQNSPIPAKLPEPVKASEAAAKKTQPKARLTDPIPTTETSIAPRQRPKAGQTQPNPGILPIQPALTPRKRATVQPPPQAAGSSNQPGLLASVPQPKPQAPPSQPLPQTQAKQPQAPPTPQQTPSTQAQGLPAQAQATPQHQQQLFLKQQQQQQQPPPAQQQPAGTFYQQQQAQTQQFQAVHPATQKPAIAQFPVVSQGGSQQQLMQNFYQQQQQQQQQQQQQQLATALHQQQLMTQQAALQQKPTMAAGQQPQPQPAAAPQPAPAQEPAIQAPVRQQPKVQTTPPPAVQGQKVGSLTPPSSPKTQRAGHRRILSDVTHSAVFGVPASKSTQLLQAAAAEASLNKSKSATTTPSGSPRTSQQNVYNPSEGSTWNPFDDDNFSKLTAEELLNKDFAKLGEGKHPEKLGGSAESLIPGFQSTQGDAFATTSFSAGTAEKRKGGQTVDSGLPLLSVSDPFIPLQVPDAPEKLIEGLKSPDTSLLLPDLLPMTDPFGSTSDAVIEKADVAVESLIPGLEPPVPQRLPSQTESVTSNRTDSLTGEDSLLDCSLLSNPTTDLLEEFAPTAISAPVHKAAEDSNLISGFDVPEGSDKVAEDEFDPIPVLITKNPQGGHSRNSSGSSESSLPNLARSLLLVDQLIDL
pIC50: −log10 of the molar value.
property_measured: pIC50

| smiles_representation | property_measured | result |
| --- | --- | --- |
| CN1CC[C@H](c2c(O)cc(O)c3c(=O)cc(-c4ccccc4Cl)oc23)[C@H](O)C1 | pIC50 | < 5.00 |

====

molecular target: JAK3 JH1 JH2 (human)
pIC50: −log10 of the molar value.

| smiles_representation | pIC50 |
| --- | --- |
| CN1CC[C@H](c2c(O)cc(O)c3c(=O)cc(-c4ccccc4Cl)oc23)[C@H](O)C1 | < 5.00 |
